Read-out: adenosine kinase (ADK) gene, ADK (gene 132)
measurement-protocol: LTEA_HepaRG_ADK: Life Technologies and Expression Analysis (LTEA) Assay for adenosine kinase (ADK) gene using HepaRG (AID 2283471)
condition-context: mRNA level, 48 h; actives raise or lower the signal
The source made the active and inactive calls. Rule for the calls: active = hit-call score of the fitted dose curve at least 0.9, where 1 is the maximum; inactive = score below 0.9.
Labels: yes (1) (active), no (0) (inactive)

• Cc1cc(N=Nc2ccccc2C)ccc1N = yes (1)
• Clc1ccccc1Cl = no (0)
• CC(C)(OOC(C)(C)c1ccccc1)c1ccccc1 = no (0)
• CCCCC(CC)COC(=O)c1ccc(C(=O)OCC(CC)CCCC)c(C(=O)OCC(CC)CCCC)c1 (stereo unspecified) = no (0)
• Nc1ccc(Cc2ccc(N)cc2)cc1 = no (0)
• ClC1=C(Cl)C2(Cl)C3C(Cl)C=CC3C1(Cl)C2(Cl)Cl (stereo unspecified) = no (0)
• CCNS(=O)(=O)C(F)(F)C(F)(F)C(F)(F)C(F)(F)C(F)(F)C(F)(F)C(F)(F)C(F)(F)F = no (0)
• c1ccc2c(c1)-c1cccc3cccc-2c13 = no (0)
• CC(C)COC(=O)c1ccccc1C(=O)OCC(C)C = no (0)
• CN(C)[C@@H]1C(=O)C(C(N)=O)=C(O)[C@@]2(O)C(=O)C3=C(O)c4c(O)cccc4[C@@](C)(O)[C@H]3C[C@@H]12 = no (0)
• C[C@]12C=CC3=C4CCC(=O)C=C4CC[C@H]3[C@@H]1CC[C@@H]2O = yes (1)
